- targetSystem: T1, CAPRIN-1 protein expressed on the membrane surface of human cancer cells (human, UniProt Q14444 2-709)
- T1 sequence (looked up): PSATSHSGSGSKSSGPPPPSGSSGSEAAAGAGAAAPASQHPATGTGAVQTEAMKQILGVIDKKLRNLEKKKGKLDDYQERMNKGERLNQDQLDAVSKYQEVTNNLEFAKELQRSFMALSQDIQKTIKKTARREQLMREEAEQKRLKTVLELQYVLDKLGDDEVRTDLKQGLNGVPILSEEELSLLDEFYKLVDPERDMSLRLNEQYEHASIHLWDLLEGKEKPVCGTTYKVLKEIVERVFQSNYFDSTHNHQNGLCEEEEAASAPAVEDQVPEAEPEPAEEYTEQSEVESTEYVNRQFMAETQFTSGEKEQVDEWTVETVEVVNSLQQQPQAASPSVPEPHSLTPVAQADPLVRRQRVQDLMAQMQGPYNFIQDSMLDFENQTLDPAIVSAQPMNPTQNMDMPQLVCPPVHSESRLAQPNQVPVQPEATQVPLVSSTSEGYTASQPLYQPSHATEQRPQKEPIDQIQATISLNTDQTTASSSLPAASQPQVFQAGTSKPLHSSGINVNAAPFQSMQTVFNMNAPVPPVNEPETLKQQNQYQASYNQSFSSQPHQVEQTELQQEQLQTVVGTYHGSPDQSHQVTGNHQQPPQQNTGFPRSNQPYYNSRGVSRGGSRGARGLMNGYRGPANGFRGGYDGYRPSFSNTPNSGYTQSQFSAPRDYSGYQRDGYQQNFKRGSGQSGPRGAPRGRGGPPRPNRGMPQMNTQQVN
- assayDetails: cell-based or functional assay
Would you kindly list ADCC cytotoxic activity (51Cr release) on NT/D1 for each of these binders?

ADCC cytotoxic activity (51Cr release) on NT/D1 reported for this binder humanized antibody #5 (antibody, V domains shown) VH: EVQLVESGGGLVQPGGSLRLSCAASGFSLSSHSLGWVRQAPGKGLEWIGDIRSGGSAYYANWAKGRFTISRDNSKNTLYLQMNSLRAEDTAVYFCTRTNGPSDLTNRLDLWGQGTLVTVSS VL: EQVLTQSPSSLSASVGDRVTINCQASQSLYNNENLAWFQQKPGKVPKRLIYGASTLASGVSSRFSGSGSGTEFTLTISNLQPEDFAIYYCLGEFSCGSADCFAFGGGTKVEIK : ≥ 30%

ADCC cytotoxic activity (51Cr release) on NT/D1 reported for this binder humanized antibody #10 (antibody, V domains shown) VH: EQSLVESGGGLVQPGGSLRLSCAASGFSLSSHSLGWVRQAPGKGLEWIGDIRSGGSAYYANWAKGRFTISRDNSKNTLYLQMNSLRAEDTAVYYCTRTNGPSDLTNRLDLWGQGTLVTVSS VL: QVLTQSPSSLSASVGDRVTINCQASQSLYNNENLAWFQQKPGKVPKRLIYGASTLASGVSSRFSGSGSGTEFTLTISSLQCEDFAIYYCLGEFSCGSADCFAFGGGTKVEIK : ≥ 37%

ADCC cytotoxic activity (51Cr release) on NT/D1 reported for this binder humanized antibody #3 (antibody, V domains shown) VH: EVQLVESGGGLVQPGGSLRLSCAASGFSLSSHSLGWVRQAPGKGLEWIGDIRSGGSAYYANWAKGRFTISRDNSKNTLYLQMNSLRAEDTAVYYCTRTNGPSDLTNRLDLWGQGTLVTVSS VL: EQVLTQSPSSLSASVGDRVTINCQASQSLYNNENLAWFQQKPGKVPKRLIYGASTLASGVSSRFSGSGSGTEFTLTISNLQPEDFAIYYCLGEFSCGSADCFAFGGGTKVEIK : ≥ 30%
